Each entry below carries its recorded bioavailability.
experiment: Bioavailability in rat; type: ADME, organism-based; conditions: in vivo
ASSAY_METRIC: bioavailability

COC(=O)C1=C(C)N=C(C)N(CCCCCN2CCN(c3ccccc3C(N)=O)CC2)C1c1ccc(F)c(F)c1 (configuration not stated); 21%
COC(=O)C1=C(C)N=C(C)N(CCCCCN2CCC(c3ccc(C)cc3)(c3ccccc3C)CC2)C1c1ccc(F)c(F)c1 (configuration not stated); 17%

* * *

biological target: Alpha-1A adrenergic receptor (Homo sapiens, UniProt P35348); test: Binding affinity against isolated human prostate using [3H]- prazosin.; type: tissue-based, Prostate gland
Sequence (P35348 whole entry): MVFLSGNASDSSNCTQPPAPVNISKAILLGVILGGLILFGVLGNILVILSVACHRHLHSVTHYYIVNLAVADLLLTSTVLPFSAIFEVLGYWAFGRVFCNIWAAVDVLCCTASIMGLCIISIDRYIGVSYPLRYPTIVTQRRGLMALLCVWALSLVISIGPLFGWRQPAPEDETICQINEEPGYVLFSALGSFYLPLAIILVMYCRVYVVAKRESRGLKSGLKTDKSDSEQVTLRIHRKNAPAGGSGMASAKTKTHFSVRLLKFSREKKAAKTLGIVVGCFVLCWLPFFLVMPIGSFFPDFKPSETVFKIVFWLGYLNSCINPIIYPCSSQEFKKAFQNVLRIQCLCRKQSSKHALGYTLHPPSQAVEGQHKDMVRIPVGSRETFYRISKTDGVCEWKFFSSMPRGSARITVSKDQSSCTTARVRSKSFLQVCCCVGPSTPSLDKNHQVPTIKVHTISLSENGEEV
ASSAY_METRIC: Ki (nM)

COC(=O)C1=C(C)N=C(C)N(CCCCCN2CCC(c3ccccc3)(c3ccccc3)CC2)C1c1ccc(F)c(F)c1 (stereo unspecified); 0.33

* * *

test: Plasma half life in rat; assay type: ADME, organism-based
The entries below come with measured half-life values attached.
ASSAY_METRIC: half-life

COC(=O)C1=C(C)N=C(C)N(CCCCCN2CCC(c3ccc(C)cc3)(c3ccccc3C)CC2)C1c1ccc(F)c(F)c1 (configuration not stated); 4.7 h
COC(=O)C1=C(C)N=C(C)N(CCCCCN2CCN(c3ccccc3C(N)=O)CC2)C1c1ccc(F)c(F)c1 (configuration not stated); 2.1 h

* * *

biological target: Alpha-1D adrenergic receptor (Homo sapiens); assay: Binding affinity against Alpha-1D adrenergic receptor (recombinant human receptor) using [3H]-prazosin.
pKi: −log10 of the molar value.
Label rule, in plain words: pKi of 6 and up is fulfilled, under 6 is not fulfilled.

COC(=O)C1=C(C)N=C(C)N(CCC[C@@H](C)CN2CCC(C#N)(c3ccccc3)CC2)C1c1ccc(F)c(F)c1 (stereo partly drawn); not fulfilled
COC(=O)C1=C(C)N=C(C)N(CCCCCN2CCN(c3ccccc3C(N)=O)CC2)C1c1ccc(F)c(F)c1 (stereo not drawn); fulfilled
COCC1=NC(C)=C(C(=O)OC)C(c2ccc(F)c(F)c2)N1CCCCCN1CCC(C#N)(c2ccccc2)CC1 (stereo not drawn); fulfilled
CNC(=O)C1=C(C)N=C(C)N(CCCCCN2CCC(C(=O)OC)(c3ccccc3)CC2)C1c1ccc(F)cc1F (stereo not drawn); not fulfilled
COC(=O)C1=C(C)N=C(C)N(CCCCCN2CCC(c3ccccc3OC)CC2)C1c1ccc(F)c(F)c1 (stereo not drawn); fulfilled
COC(=O)C1=C(C)N=C(C)N(CCCCN2CCC(C(=O)OC)(c3ccccc3)CC2)C1c1ccc(F)c(F)c1 (stereo not drawn); fulfilled

* * *

target: Alpha-1D adrenergic receptor (Homo sapiens, UniProt P25100); assay: Binding affinity against Alpha-1D adrenergic receptor (recombinant human receptor) using [3H]-prazosin.
Sequence (P25100 whole entry): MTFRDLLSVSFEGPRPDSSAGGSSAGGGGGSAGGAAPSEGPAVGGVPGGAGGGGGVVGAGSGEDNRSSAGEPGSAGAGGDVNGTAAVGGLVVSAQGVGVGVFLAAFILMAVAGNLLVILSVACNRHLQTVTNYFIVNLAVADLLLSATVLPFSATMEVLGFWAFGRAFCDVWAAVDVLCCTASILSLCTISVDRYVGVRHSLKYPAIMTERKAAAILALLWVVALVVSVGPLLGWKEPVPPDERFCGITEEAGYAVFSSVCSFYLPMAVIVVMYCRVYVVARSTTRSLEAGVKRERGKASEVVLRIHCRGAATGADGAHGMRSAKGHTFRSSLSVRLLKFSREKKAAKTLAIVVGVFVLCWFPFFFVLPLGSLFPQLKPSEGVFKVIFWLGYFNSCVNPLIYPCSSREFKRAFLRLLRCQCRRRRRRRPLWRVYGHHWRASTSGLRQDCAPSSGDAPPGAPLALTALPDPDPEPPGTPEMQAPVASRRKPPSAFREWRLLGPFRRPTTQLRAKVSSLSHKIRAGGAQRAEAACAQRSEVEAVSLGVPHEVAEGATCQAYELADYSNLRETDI
ASSAY_METRIC: log10(Ki) (log10 of the value in nM)

COC(=O)C1=C(C)N=C(C)N(CCCCCN2CCN(c3ccccc3OC)CC2)C1c1ccc(F)c(F)c1 (centres undefined); 1.81
COC(=O)C1=C(C)N=C(C)N(CCC[C@H](C)CN2CCC(C(=O)OC)(c3ccccc3)CC2)C1c1ccc(F)c(F)c1 (single isomer, unassigned; (+)); 2.96
COC(=O)C1=C(C)N=C(C)N(CCC[C@@H](C)CN2CCN(c3ccccc3C(N)=O)CC2)C1c1ccc(F)c(F)c1 (single isomer, unassigned; (+)); 3.23
COC(=O)C1=C(C)N=C(C)N(CCCCCN2CCC(C#N)(c3ccccc3)CC2)C1c1ccc(F)c(F)c1 (centres undefined); 3.04
COC(=O)C1=C(C)N=C(C)N(CCC[C@H](C)CN2CCN(c3ccccc3C(N)=O)CC2)C1c1ccc(F)c(F)c1 (some centres undefined); 3.23
COC(=O)C1=C(C)N=C(C)N(CCCCCN2CCN(c3ccccc3C(=O)OC)CC2)C1c1ccc(F)c(F)c1 (centres undefined); 1.90
COCC1=C(C(=O)OC)C(c2ccc(F)c(F)c2)N(CCCCCN2CCC(C#N)(c3ccccc3)CC2)C(C)=N1 (centres undefined); 2.83
COC(=O)C1=C(C)N=C(C)N(Cc2cccc(CN3CCC(C(=O)OC)(c4ccccc4)CC3)c2)C1c1ccc(F)c(F)c1 (centres undefined); 2.76
COC(=O)C1=C(C)N=C(C)N(CCCCCN2CCC(c3ccccc3)CC2)C1c1ccc(F)c(F)c1 (centres undefined); 2.34
